Attribution: the supplement of paper PMC9170038

Test system: MS2 coat protein
Test: apparent KD of MS2 coat protein; designed switch direction (-1 OFF switch, 1 ON switch): -1; higher = weaker reporter binding
Settings: Eterna round: R95; input ligand: microRNA oligo, concentration not stated
Mark f for apparent KD of MS2 coat protein values under 50 nM, and t for everything at or above.

Worked cases, answers included:
sequencechain="GCCAGAGCAGGAUAUCUAAUAUCUCACAUGAGGAUCACCCAUGUCUAGCGAAAGCUAGAGGGAGAAGGGCUCUGGC [Mat - Exclusion 5 - Eli mod - D93] (puzzle: Exclusion 5)" classlabel=f
sequencechain="AGUACUAACACGAAAGUGUUAGUACAAUAAGCUUGUGAAACAUGAGGAUCACCCAUGUCCUCAUGAGCUCGUCUUAU [salish99_TOv2_r3_051] (puzzle: Sensor v3, turn-off variant 2)" classlabel=f
sequencechain="GAUCAACAUGAGGAUCACCCAUGUGAGGAUAUGAUACUAUGUACUUCGGUACAUAGUAUCAGAAGGCACAUAAA [Ex1-3: 38] (puzzle: Exclusion 1)" classlabel=t

Task item: Check if apparent KD of MS2 coat protein >= 50 nM (inclusive). Item: AAGAAACAUGAGGAUCACCCAUGUGAGGAUAUGUAAAAUAAAAUAAAAUAAAUAAUAAACAGAAGGCACAAAGG [Mat - Mod of Hog D17] (puzzle: Exclusion 1)
Reply: t

Task item: Textbook exercise: given the entry AAGUAGGCAGGAUAUACAUGAGGAUCACCCAUGUGCCCAUGAAAGGUACUUUCGAAAGGUAGAAGGGCCUACAA [ChP 13.04.2015 #5] (puzzle: Exclusion 3) , state whether its apparent KD of MS2 coat protein is greater than or equal to 50 nM.
Reply: f

Task item: Please indicate if the recorded apparent KD of MS2 coat protein for GGUGGACAUGAGGAUCACCCAUGUGAGGAUAUCGGCUAUCUUAUCGCUGUCGGUUGCUCGAGAAGGCACAUUGU [Exclusion 1 V96] (puzzle: Exclusion 1) meets or exceeds 50 nM.
Reply: t

Task item: Does the reported apparent KD of MS2 coat protein for AAACCCUGAGGAUAUACAUAACAACAAAGCCUCACGUGCCAACAUGAGGAUCACCCAUGUAGAAGGCAGGCCAA [Isananra] (puzzle: Exclusion 2) fall at or above the 50 nM mark?
Reply: f

Task item: Assess whether reported apparent KD of MS2 coat protein for CUGAUGUUAGGAUAUCAGGCGCCCGCCACUGGCAAGGCGCAUGAGAAGGGACAUGAGGAUCACCCAUGUAGUAA [Maquraan] (puzzle: Exclusion 4) sits at 50 nM or higher.
Reply: f

Task item: Could you verify whether the entry CAAUAACAAGCGAGAUCCUACAUGAGGAUCACCCAUGUGCUCGUCUUAUAAAGUACUAUCACGAAAGUGAUAGUACA [Mat - Sensor v3 - turn-off var 1 - Eli Mod - D63] (puzzle: Sensor v3, turn-off variant 1) shows apparent KD of MS2 coat protein of no less than 50 nM?
Reply: f

Task item: API: above_or_equal(metric=apparent KD of MS2 coat protein, cutoff=50 nM) for item AAGUACCGUCACGAUAGUGAUGGUACAACAAGCAGUGACACAUGAGGAUCACCCAUGUCCUCAAUUGCUCGUCUUAU [Sensor 3 - 76] (puzzle: Sensor v3, turn-off variant 2)
Reply: t

Task item: # bool: apparent KD of MS2 coat protein of UAUUAACAAGUAAGAUCCUACAUGAGGAUCACCCAUGUGCUCGUCUUAUAAGGUACUGUGACGAAAGUCACGGUACC [Sensor 3, v1 - 72] (puzzle: Sensor v3, turn-off variant 1) >= 50 nM
Reply: f
